In what follows, each item is paired with its Kd for UniProt P42338.
Sequence (P42338 whole entry): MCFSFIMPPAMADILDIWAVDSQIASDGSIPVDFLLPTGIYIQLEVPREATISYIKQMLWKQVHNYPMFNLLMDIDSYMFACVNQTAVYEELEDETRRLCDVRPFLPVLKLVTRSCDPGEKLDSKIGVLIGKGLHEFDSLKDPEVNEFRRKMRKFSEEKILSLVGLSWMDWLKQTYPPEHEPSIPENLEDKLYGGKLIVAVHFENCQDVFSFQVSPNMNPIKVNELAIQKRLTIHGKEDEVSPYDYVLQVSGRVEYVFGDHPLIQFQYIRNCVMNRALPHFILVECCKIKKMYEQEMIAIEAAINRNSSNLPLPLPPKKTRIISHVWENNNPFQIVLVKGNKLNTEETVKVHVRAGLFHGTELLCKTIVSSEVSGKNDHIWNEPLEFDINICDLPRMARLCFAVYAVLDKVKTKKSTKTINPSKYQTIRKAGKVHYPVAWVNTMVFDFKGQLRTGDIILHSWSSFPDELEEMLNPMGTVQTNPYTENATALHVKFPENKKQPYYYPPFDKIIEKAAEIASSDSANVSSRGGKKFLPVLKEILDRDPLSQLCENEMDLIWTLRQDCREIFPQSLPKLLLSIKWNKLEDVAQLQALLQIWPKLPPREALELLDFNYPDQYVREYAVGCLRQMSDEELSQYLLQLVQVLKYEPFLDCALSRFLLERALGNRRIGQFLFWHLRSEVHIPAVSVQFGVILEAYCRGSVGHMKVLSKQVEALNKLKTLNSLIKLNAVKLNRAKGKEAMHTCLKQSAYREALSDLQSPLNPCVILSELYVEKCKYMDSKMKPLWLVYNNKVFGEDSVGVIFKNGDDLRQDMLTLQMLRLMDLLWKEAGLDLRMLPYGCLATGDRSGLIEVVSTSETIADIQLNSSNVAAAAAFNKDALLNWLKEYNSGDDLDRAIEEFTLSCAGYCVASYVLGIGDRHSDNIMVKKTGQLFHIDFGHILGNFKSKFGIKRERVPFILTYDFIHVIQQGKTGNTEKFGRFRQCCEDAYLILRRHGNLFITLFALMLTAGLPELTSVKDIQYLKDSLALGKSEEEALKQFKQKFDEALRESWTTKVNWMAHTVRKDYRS
The reply should contain only the number, in nM.

Illustrative cases are given below, each with its answer.
Lookup: Tell me the measured Kd of C[C@H](Nc1nc(N)nc(N)c1C#N)c1cc2cccc(Cl)c2c(=O)n1-c1ccccc1 [DWL-PI3K-3] , please.
Found: 0.084

Lookup: Kd lookup needed for C[C@H](Nc1nc(N)nc(N)c1C#N)c1cc2cccc(Cl)c2c(=O)n1-c1cc(F)cc(F)c1 [DWL-PI3K-5] , thanks.
Found: 1.4

Lookup: Could you tell me which Kd is on file for C[C@H](Nc1nc(N)nc(N)c1C#N)c1cc2cccc(Cl)c2c(=O)n1-c1cccc(F)c1 [DWL-PI3K-6] ?
Found: 0.46

Others:
Lookup: For the compound [2H]c1c([2H])c([2H])c(-n2c([C@H](C)Nc3nc(N)nc(N)c3C#N)cc3cccc(Cl)c3c2=O)c([2H])c1[2H] [DWL-PI3K-7] , what Kd is on record?
Found: 0.3
